assay-notes: Drug metabolism in mouse liver microsomes assessed as compound oxidization incubated for 90 mins in presence of NAPDH
Format: ADME, Microsome
experimental-setup: read-out: Drug metabolism
test-readout: metabolised at 1.5 h

Req: Hello, please tell me recorded metabolised at 1.5 h for this one: "O[C@@H](CN1[C@@H]2CC[C@H]1C/C(=C\c1ccc(F)cc1)C2)c1ccccc1"
Resp: 32%

----------
Kindly state Ki for each of the entries shown.
Quick note: unit goes after the number.

Req: Fetch value of Ki on Sigma non-opioid intracellular receptor 1 (Cavia porcellus, UniProt Q60492) for "O[C@H](CN1[C@@H]2CC[C@H]1C/C(=C/c1ccc(F)cc1)C2)c1ccccc1" .
Sequence (Q60492 whole entry): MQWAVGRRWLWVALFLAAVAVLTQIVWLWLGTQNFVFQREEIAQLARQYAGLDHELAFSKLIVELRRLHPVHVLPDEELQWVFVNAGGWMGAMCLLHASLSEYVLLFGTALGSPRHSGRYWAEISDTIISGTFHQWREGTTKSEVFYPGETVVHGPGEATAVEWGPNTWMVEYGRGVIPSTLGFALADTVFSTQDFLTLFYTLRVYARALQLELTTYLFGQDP
Resp: 0.45 nM

Req: Fetch value of Ki on Sigma non-opioid intracellular receptor 1 (Cavia porcellus, UniProt Q60492) for "O[C@@H](CN1[C@@H]2CC[C@H]1C/C(=C/c1ccc(F)cc1)C2)c1ccccc1" .
Resp: 18 nM

Req: Fetch value of Ki on Sigma non-opioid intracellular receptor 1 (Cavia porcellus, UniProt Q60492) for OC(CN1CCC(Cc2ccc(F)cc2)CC1)c1ccc(Cl)cc1 (stereo not given) .
Resp: 94 nM

Req: Fetch value of Ki on Sigma non-opioid intracellular receptor 1 (Cavia porcellus, UniProt Q60492) for "O[C@H](CN1[C@@H]2CC[C@H]1C/C(=C\c1ccc(F)cc1)C2)c1ccccc1" .
Resp: 6.6 nM

Req: Fetch value of Ki on Sigma non-opioid intracellular receptor 1 (Cavia porcellus, UniProt Q60492) for "O[C@@H](CN1[C@@H]2CC[C@H]1C/C(=C\c1ccc(F)cc1)C2)c1ccccc1" .
Resp: 0.8 nM
